Taken from patent EP4438624A1.

Target: T1, recombinant purified human Nectin-4-Fc fusion protein (human, UniProt Q96NY8 32-349)
T1 construct: Bought ('Aero Biosystems' as printed); not shown: Fc part of the bought fusion protein; captured by anti-human IgG Fc sensors
T1 sequence: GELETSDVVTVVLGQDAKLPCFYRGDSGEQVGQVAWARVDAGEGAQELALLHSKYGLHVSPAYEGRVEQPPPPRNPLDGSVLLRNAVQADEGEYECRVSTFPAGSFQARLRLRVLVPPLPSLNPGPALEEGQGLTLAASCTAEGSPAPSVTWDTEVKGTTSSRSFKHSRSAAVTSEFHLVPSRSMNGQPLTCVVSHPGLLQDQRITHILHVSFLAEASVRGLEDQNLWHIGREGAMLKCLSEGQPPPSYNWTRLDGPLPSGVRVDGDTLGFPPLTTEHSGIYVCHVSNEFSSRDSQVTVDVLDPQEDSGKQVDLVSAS
Experiment: BLI (Octet), Nectin-4-Fc on anti-human Fc sensors, run 2
quantity: Kd (nM)
Report the value in nM with no unit label.

LV1185 (VHH, Llama-derived anti-Nectin-4 VHH) VHH: EVQLVESGGGLVQAGGSLRLSCAASRSTFSLNIMGWYRQAPGKQREYVATITTGGSTNYADSVRGRFTISRDNAEDTVYLQMNSLKPEDTAVYYCTAELVRRGPTTYWGRGTQVTVSS | 2.34

q: Consider the binder shown here: LV1183 (VHH, Llama-derived anti-Nectin-4 VHH) VHH: EVQLVESGGGLVQAGGSLRLSCAASGSIFDINLMGWYRQAPGKLRELVASITRGGSTWYVDSVKGRFIISRDSAKNTVYLQMNSLKPGDTAVYYCAAESIGSYTFDRWGQGTQVTVSS What is its recorded Kd?
a: 7.98
